Target: UniProt Q8NER1
Sequence (Q8NER1 whole entry): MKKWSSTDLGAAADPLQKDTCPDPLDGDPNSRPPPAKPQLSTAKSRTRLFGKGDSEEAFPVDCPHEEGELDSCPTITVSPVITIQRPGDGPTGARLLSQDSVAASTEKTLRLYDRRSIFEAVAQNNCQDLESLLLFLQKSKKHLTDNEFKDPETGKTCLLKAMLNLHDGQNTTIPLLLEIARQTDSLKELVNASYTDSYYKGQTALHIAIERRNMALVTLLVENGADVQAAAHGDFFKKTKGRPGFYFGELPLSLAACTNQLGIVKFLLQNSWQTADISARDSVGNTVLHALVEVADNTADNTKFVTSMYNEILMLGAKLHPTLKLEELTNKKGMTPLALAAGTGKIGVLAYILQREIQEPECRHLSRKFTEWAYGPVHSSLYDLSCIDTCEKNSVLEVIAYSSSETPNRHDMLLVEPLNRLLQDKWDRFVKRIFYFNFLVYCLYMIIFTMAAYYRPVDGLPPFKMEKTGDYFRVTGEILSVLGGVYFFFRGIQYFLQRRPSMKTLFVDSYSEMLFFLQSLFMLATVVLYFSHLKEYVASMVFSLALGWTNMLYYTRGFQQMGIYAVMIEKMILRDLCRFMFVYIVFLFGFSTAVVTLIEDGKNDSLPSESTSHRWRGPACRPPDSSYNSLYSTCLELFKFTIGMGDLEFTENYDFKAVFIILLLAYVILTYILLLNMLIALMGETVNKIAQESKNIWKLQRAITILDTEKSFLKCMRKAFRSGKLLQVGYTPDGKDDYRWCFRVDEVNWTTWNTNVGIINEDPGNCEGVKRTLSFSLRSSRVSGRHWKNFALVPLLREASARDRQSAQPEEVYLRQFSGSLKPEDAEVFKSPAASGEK
Experiment: Acid activation assay (pH 5.0, FLIPR intracellular Ca2+)
Assay type: cell-based
Conditions: Table 1; 37.5 μM antagonist, percentage of the maximal pH 5.0-induced response remaining; read-out: hTRPV1 H+ (max % remain)
Would you mind sorting the entries by remaining activity at 37.5 µM according to these classes? low value (below 40%), medium value (40% to below 60%), high value (60% or more)

O=C1CCc2ccc(NC(=O)N[C@H]3CC[C@H](c4ccccc4)C3)cc2N1 [Example 12]
high value
O=C(Nc1ccc2c(c1)NC(=O)N(CCO)C2)N[C@H]1CC[C@H](c2ccccc2)C1 [Example 114]
high value
Cn1c(=O)ccc2c(NC(=O)N[C@@H]3CC[C@H](c4ccccc4)C3)cccc21 [Example 51]
medium value
O=C(Nc1cccc2c1C[C@H](O)C2)N[C@H]1CC[C@@H](c2cccc(F)c2)C1 [Example 91]
high value
Cc1csc([C@H]2CC[C@@H](NC(=O)Nc3cccc4[nH]ncc34)C2)n1 (single isomer, unassigned) [Example 121]
low value
Cc1csc([C@@H]2CC[C@H](NC(=O)Nc3cccc4[nH]ncc34)C2)n1 (single isomer, unassigned) [Example 120]
medium value
O=C(Nc1cccc2c1C[C@H](O)C2)N[C@@H]1CC[C@@H](c2ccccc2)C1 [Example 15]
low value
O=C(Nc1cccc2[nH]ncc12)N[C@H]1CC[C@H](c2ccccc2)C1 [Example 14]
low value

The reported measurements were obtained from patent US8802711B2.
